- System: Staphylococcus aureus
- assay procedure: Antibacterial activity against methicillin and quinolones-resistant Staphylococcus aureus Smith QR54 by twofold agar dilution method
- Type: functional
Answer each item with its documented MIC.
Report the figure in µg/mL without appending any unit label.

Q: Query MIC for COc1cc(O)c2c(c1C)C(=O)N1c3c(C)cccc3COC21 (stereo unspecified)
Ans: 16

Q: Query MIC for COc1cc(O)c2c(c1C)C(=O)N1c3cccnc3COC21 (stereo unspecified)
Ans: 1

Q: Query MIC for COc1cc(O)c2c(c1Br)C(=O)N1c3ccc(C)cc3COC21 (stereo unspecified)
Ans: 8

Q: Query MIC for Oc1ccc(Cl)cc1CNc1ccc(Cl)cc1
Ans: 16

Q: Query MIC for COc1ccc2c(c1)[C@@H](O)C[C@@H]1c3c(O)cc(OC)c(C)c3C(=O)N21
Ans: 16

Q: Query MIC for COc1cc(O)c2c(c1C)C(=O)N1c3ccc(Cl)cc3[C@@H](O)C[C@H]21
Ans: 8

Q: Query MIC for COc1ccc2c(c1)CC[C@@H]1c3c(O)cc(OC)c(C)c3C(=O)N21
Ans: 16

Q: Query MIC for COc1cc(O)c2c(c1C)C(=O)N1c3ccc(Cl)cc3CC[C@H]21
Ans: 32

Q: Query MIC for COc1cc(O)c2c(c1C)C(=O)N1c3ccc(C)cc3COC21 (stereo unspecified)
Ans: 16

Q: Query MIC for CO[C@@H]1[C@@H](OC(N)=O)[C@@H](O)[C@H](Oc2ccc3c(O)c(NC(=O)c4ccc(O)c(CC=C(C)C)c4)c(=O)oc3c2C)OC1(C)C
Ans: 0.12

Q: Query MIC for COc1cc(O)c2c(c1Br)C(=O)N1c3ccccc3COC21 (stereo unspecified)
Ans: 2

====

- System: Staphylococcus aureus
- assay procedure: Antibacterial activity against Staphylococcus aureus ATCC 25923 by twofold agar dilution method
- Format: functional
Answer each item with its documented MIC.

Q: # return MIC for COc1cc(O)c2c(c1C)C(=O)N1c3ccc(Cl)cc3[C@@H](O)C[C@H]21 , test system: Staphylococcus aureus
Ans: 8 µg/mL

Q: # return MIC for COc1cc(O)c2c(c1Br)C(=O)N1c3ccc(C)cc3COC21 (stereo unspecified) , test system: Staphylococcus aureus
Ans: 8 µg/mL

Q: # return MIC for COc1cc(O)c2c(c1C)C(=O)N1c3ccc(C)cc3COC21 (stereo unspecified) , test system: Staphylococcus aureus
Ans: 32 µg/mL

Q: # return MIC for COc1cc(O)c2c(c1C)C(=O)N1c3c(C)cccc3COC21 (stereo unspecified) , test system: Staphylococcus aureus
Ans: 32 µg/mL

Q: # return MIC for COc1cc(O)c2c(c1Br)C(=O)N1c3ccccc3COC21 (stereo unspecified) , test system: Staphylococcus aureus
Ans: 2 µg/mL

Q: # return MIC for COc1cc(O)c2c(c1C)C(=O)N1c3ccc(Cl)cc3CC[C@H]21 , test system: Staphylococcus aureus
Ans: > 32 µg/mL

====

- Tested on: Staphylococcus aureus
- assay procedure: Antibacterial activity against Staphylococcus aureus ATCC 25923 by twofold agar dilution method
- Assay type: functional
readout name: MIC (µg/mL)
Report the figure in µg/mL without appending any unit label.

Q: Query MIC for COc1cc(O)c2c(c1C)C(=O)N1c3cccnc3COC21 (centres undefined)
Ans: 1

Q: Query MIC for CO[C@@H]1[C@@H](OC(N)=O)[C@@H](O)[C@H](Oc2ccc3c(O)c(NC(=O)c4ccc(O)c(CC=C(C)C)c4)c(=O)oc3c2C)OC1(C)C [NOVOBIOCIN]
Ans: 0.25
